Recorded values, source PubChem BioAssay.

PROCEDURE_DETAILS: HUVEC growth inhibition – cell-based, human, primary screen (AID 575);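 also: 100% = median of untreated cell wells with 0.1% DMSO on each plate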
APPLIED_CONDITIONS: HUVEC proliferation, CellTiter-Glo luminescence, 72 h; at 10 µM; stronger effect = lower value
Peptide text beside a SMILES is read from it. * marks the point of attachment. Boc = CC(C)(C)OC(=O)*
Items are presented alongside their recorded viability.
Please respond with the number in % and leave the unit unwritten.

Use these answered entries as a reference point.
| COMPOUND | UNIT_ABBREVIATION | viability |
| --- | --- | --- |
| COC(=O)c1cc(=O)n2c(-c3ccc(OC)cc3)csc2n1 | % | 96.2 |
| Cc1ccc(-c2nnc3c4ccccc4c(C)nn23)cc1NC(=O)c1ccco1 | % | 98.2 |
| Cc1nc(-c2coc3cc(OCC(=O)O)ccc3c2=O)cs1 | % | 107 |
| CCn1c(=N)n(CC(=O)c2ccco2)c2ccccc21 | % | 95.5 |
| CC(C)OC(=O)c1cccc(C(=O)O)n1 | % | 91 |
| CCOc1ccc(OCC)c2sc(C)nc12 | % | 102 |
| CC(=O)Nc1c(I)c(NC(C)=O)c(I)c(C(=O)O)c1I | % | 98.4 |
| COCCCN1C(=O)C(=O)/C(=C(/O)c2ccc(OC)cc2)C1c1ccc(O)c(OC)c1 (configuration not stated) | % | 109 |
| CCCNC(=O)NS(=O)(=O)c1ccc(Cl)cc1 | % | 85 |
| COc1cc(NC(=O)c2cc(-n3cnnc3)ccc2Cl)cc(OC)c1 | % | 93.6 |

Return reported viability. Input compound: O=C1C2ON(c3ccccc3)C(c3cccnc3)C2C(=O)N1c1ccccc1 (configuration not stated)
104

Return reported viability. Input compound: CCc1nnc(NC(=O)CSc2nnc(-c3ccccc3OC)n2-c2ccccc2)s1
108

Return reported viability. Input compound: COc1ccc(CCNc2oc(COc3ccc(F)cc3)nc2C#N)cc1
76.2

Return reported viability. Input compound: CC(C)CC(NC(=O)OC(C)(C)C)C(=O)NC(C(=O)N1CCCC1C(N)=O)C(C)C (stereo not drawn) (Boc-Leu-Val-Pro-NH2; configuration not given here)
101

Return reported viability. Input compound: O=C(c1ncc[nH]1)c1ccccc1C(=O)N1CCOCC1
100

Return reported viability. Input compound: CC(C)CCNC(=O)C(C)N(Cc1ccc(F)cc1)C(=O)c1ccc(CN2CCCCC2)o1 (configuration not stated)
108

Return reported viability. Input compound: CCn1c(SCC(=O)Nc2ccccc2F)nc2c(c1=O)SC(C)C2 (configuration not stated)
96.4

* * *

Items are presented alongside their recorded viability.
PROCEDURE_DETAILS: reducers of endogenous Her2 protein level, primary screen, SKBR3 breast tumor cells, AlphaScreen, ATP viability (AID 461);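 also: percent of carrier control wells set as 100% viability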
APPLIED_CONDITIONS: 18-24 h, measured here: SKBR3 viability, ATP luminescence, at 10 µM
Please respond with the number in % and leave the unit unwritten.

Use these answered entries as a reference point.
| COMPOUND | READOUT | RECORDED_RESULT |
| --- | --- | --- |
| CCn1c(SCC(=O)N2c3ccccc3CCc3ccccc32)nc2c1c(=O)n(C)c(=O)n2C | viability | 87.5 |
| O=C(Nc1ccc(S(=O)(=O)N2CCCCCC2)cc1)c1ccco1 | viability | 94.5 |
| Cc1ccc(Cn2nnc3c(=O)[nH]c(C4CCN(S(=O)(=O)c5ccc(F)cc5)CC4)nc32)cc1 | viability | 90.5 |
| Cc1cc(NC(=O)CSc2nccn2-c2ccc(Cl)cc2)no1 | viability | 91.5 |
| NC(=O)c1oc2ccc(Cl)cc2c1NC(=O)CN1CCOCC1 | viability | 93.5 |
| CCOC(=O)c1cc(-c2nnc(-c3ccc(Oc4ccccc4)cc3)o2)c(C)nc1C | viability | 85 |
| c1ccc(CN2CCN(c3ncnc4c3[nH]c3ccccc34)CC2)cc1 | viability | 121 |
| CCOC(=O)c1sc(NC(=O)CSc2nnnn2-c2ccccc2)c(C(=O)OCC)c1C | viability | 80 |

Return reported viability. Input compound: CCN(CC)CC(=O)Nc1ccc(-c2nc3cc(NC(=O)CN(CC)CC)ccc3o2)cc1
91

Return reported viability. Input compound: Oc1ccc(C=Nc2cccc3ncccc23)c(O)c1
103

Return reported viability. Input compound: CC1CCCN(C(=O)CN2CCN(C(=O)c3ccco3)CC2)C1 (configuration not stated)
95.5

Return reported viability. Input compound: CC(C)COc1ccc(C(=O)OCCN2CCOCC2)cc1
98.5

Return reported viability. Input compound: CCCCC(=O)Nc1c(O)c2ccccc2[nH]c1=O
95.5

Return reported viability. Input compound: COc1cc(C(=O)Nc2nc(-c3cccs3)cs2)cc(OC)c1OC
86

Return reported viability. Input compound: COc1ccccc1CCNC(=O)C1CCCO1 (configuration not stated)
108

Return reported viability. Input compound: O=C1CSC(c2cn(-c3ccccc3)nc2-c2cccs2)N1CC1CCCO1 (configuration not stated)
102

Return reported viability. Input compound: CCOC(=O)C1(C(=O)OCC)C(c2ccccc2)CC(O)N1C(C)=O (configuration not stated)
116

Return reported viability. Input compound: Cc1occc1C(=O)Nc1cccc2ccccc12
86

Return reported viability. Input compound: Cc1ccc(C2/C(=C(/O)c3cnn(-c4ccccc4)c3C)C(=O)C(=O)N2CCN2CCOCC2)o1 (configuration not stated)
77.5

Return reported viability. Input compound: COc1ccc(C)cc1NC(=O)CCC(=O)Nc1ccc2nc(N3CCN(C)CC3)cc(C)c2c1
70.5

Return reported viability. Input compound: CC(=O)c1c(OCC(=O)O)ccc2c(C)cc(=O)oc12
136

Return reported viability. Input compound: CC(=O)NC1CC2CCCC(C1)N2CC(=O)Nc1ccccc1 (configuration not stated)
95.5

* * *

PROCEDURE_DETAILS: growth inhibitors of H69AR lung tumor, primary screen, human, duplicate replicates (AID 580);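 also: 100% = mean luminescence of untreated wells and 0% = no signal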
APPLIED_CONDITIONS: H69AR lung tumor cells viability, ATP luminescence, 72 h; at 10 µM; stronger effect = lower value
Kindly note that classification relies on viability with these boundaries: low group (below 80%), middle group (80% to below 90%), high group (90% or more)

Sort COc1ccccc1N(CN1CCCC1=O)C(=O)c1c(F)cccc1Cl into one of the categories.
high group

* * *

PROCEDURE_DETAILS: reversal of MRP1-mediated doxorubicin resistance, pilot screen, H69AR cells, doxorubicin co-treatment (AID 601)
APPLIED_CONDITIONS: H69AR cells + 2 uM doxorubicin, CellTiter-Glo, 72 h; measured here: viability with 2 uM doxorubicin; at 10 µM; stronger effect = lower value
Kindly note that classification relies on viability with these boundaries: lower band = under 80%, central band = from 80% up to 90%, upper band = 90% and over

See these solved cases before continuing.
| MOLECULE | ANSWER_LABEL |
| --- | --- |
| C=CCN=C1SCC(=O)N1S(=O)(=O)c1ccc(C)cc1 | upper band |
| CCCn1cc(C(CC(=O)O)C(=O)O)c2ccccc21 (stereo unspecified) | upper band |

Sort COc1ccccc1CNC(=O)C(C)NS(=O)(=O)c1ccccc1 (stereo unspecified) into one of the categories.
upper band

* * *

PROCEDURE_DETAILS: reversal of MRP1-mediated doxorubicin resistance, pilot screen, H69AR cells, doxorubicin co-treatment (AID 601)
APPLIED_CONDITIONS: H69AR cells + 2 uM doxorubicin, CellTiter-Glo, 72 h; measured here: viability with 2 uM doxorubicin; at 10 µM; stronger effect = lower value
Define the label as True when viability is strictly less than 90% and as False in all remaining cases.

See these solved cases before continuing.
| MOLECULE | ANSWER_LABEL |
| --- | --- |
| CC1CN(c2nc3ccccc3nc2C(C#N)C(=O)NCc2ccc3c(c2)OCO3)CC(C)O1 (stereo unspecified) | False |
| CCCCC[C@H](O)/C=C/[C@@H]1[C@@H](CCCCCCC(=O)O)[C@@H](O)C[C@H]1O | False |
| COc1cc(/C=C/C(=O)CC(=O)/C=C/c2ccc(O)c(OC)c2)ccc1O | True |
| CCOc1ccc2c(c1)c1nnc(SCC(=O)N3CCC(C)CC3)nc1n2C | True |

Hello, is viability of the following molecule strictly smaller than 90%? CCC(C)(C)n1nnnc1C(c1ccccc1OC)N1CCSCC1 (stereo unspecified)
True

Hello, is viability of the following molecule strictly smaller than 90%? COc1cccc(C(=O)Nc2cnc(NC(=O)c3ccco3)cc2C)c1
True

Hello, is viability of the following molecule strictly smaller than 90%? CCOC(=O)C1=C[C@]2(CC)CCCN3CCc4c(n1c1ccccc41)[C@@H]32
True

Hello, is viability of the following molecule strictly smaller than 90%? Nn1cnnc1SCC(=O)Nc1ccc2c(c1)OCCO2
False

Hello, is viability of the following molecule strictly smaller than 90%? CCOc1ccccc1C(=O)Nn1c(C2CCC2)nc2ccccc2c1=O
False
